Could you please report measured growth inhibition for the items listed next?
# PROTOCOL_SUMMARY: NCI Yeast Anticancer Drug Screen. Data for the mec2-1 strain (AID 157)
# STUDY_CONDITIONS: S. cerevisiae mec2-1 strain, at 50.0 µM, active compounds read high
About 79,000 compounds went through this panel and 15% of them were active in at least one assay; those are over-represented in the sample as a whole.
Your answer is read as %, so omit the unit and give the number.

**Q:** Param item = `Nc1nnc(-c2ccc(Nc3nc4ccccc4[nH]3)c([N+](=O)[O-])c2)s1` ; retrieve measured growth inhibition.
**A:** 1.4

**Q:** Entry `Nc1ccccc1N/N=C/c1ccccc1` has what growth inhibition?
**A:** 15.3

**Q:** Look at this compound and give its reported growth inhibition. `C(=N\NC1=NCCCCN1)/c1ccc2ccccc2c1`
**A:** -1.75

**Q:** So what's the measured growth inhibition for this one? CCC1CCCC1=O (configuration not stated)
**A:** -10.1

**Q:** Recorded growth inhibition of `CCOc1ccc(N(O)C(C)=O)cc1` , please.
**A:** -10.4

**Q:** Item under review: `O=C(O)c1cccc(SS(=O)(=O)c2cccc(C(=O)O)c2)c1` . Reported growth inhibition?
**A:** -13.4

**Q:** // query growth inhibition value for entry `CC(C)(O)CC(O)(C(F)(F)F)C(F)(F)F`
**A:** -0.95

**Q:** Which growth inhibition value is on record for `COc1ccc([N+](=O)[O-])cc1NC(=O)Nc1ccc(F)c([N+](=O)[O-])c1` ?
**A:** 3.4

**Q:** For the compound shown here, `COc1ccc(/C(Cl)=C(\CN(C)C)c2ccc(OC)c(OC)c2)cc1OC` , give the reported growth inhibition.
**A:** 18.6

**Q:** I would be grateful if you could share the reported growth inhibition for CN1C(=O)C(O)(c2c3c(c(C4(O)C(=O)N(C)c5ccccc54)c4c2OCO4)OCO3)c2ccccc21 (configuration not stated) .
**A:** -0.6

**Q:** Find the recorded growth inhibition belonging to CC1CCCNC1C (configuration not stated) and report it.
**A:** -24.1

**Q:** What does the data say about its growth inhibition? Entry: `C[N+](C)(C)N=C1CCCCC1`
**A:** -3.6
